molecular target: CaCYP51 F449Y (Candida albicans, UniProt P10613, F449Y); construct: made in house; host or cells: E. coli DH5α (pCWori+); experiment: CYP51 reconstitution assay; assay type: biochemical; conditions: 0.25 h, 4 μM triazole, % of activity without triazole, read-out: Residual CYP51 activity (%) ± SD
For each record, write down the corresponding remaining activity at 4 µM.
Answer format reminder: number followed by unit.

Past entries and their recorded results:
C[C@@H](c1ncncc1F)[C@](O)(Cn1cncn1)c1ccc(F)cc1F [Voriconazole, voriconazole]    0.56%
CCC(C)n1ncn(-c2ccc(N3CCN(c4ccc(OCC5COC(Cn6cncn6)(c6ccc(Cl)cc6Cl)O5)cc4)CC3)cc2)c1=O (stereo not shown) [Itraconazole, itraconazole]    0.84%
OC(Cn1cncn1)(Cn1cncn1)c1ccc(F)cc1F [Fluconazole, fluconazole]    0.76%

Continue with the compound presented below.
[ask] Need remaining activity at 4 µM, item CC[C@@H]([C@H](C)O)n1ncn(-c2ccc(N3CCN(c4ccc(OC[C@@H]5CO[C@@](Cn6cncn6)(c6ccc(F)cc6F)C5)cc4)CC3)cc2)c1=O [Posaconazole, posaconazole]
[reply] 5.42%

----------
molecular target: CaCYP51 V456I (Candida albicans, UniProt P10613, V456I); construct: made in house; host or cells: E. coli DH5α (pCWori+); experiment: CYP51 reconstitution assay; format: biochemical; conditions: 0.25 h, 4 μM triazole, % of activity without triazole, read-out: Residual CYP51 activity (%) ± SD
Assign remaining activity at 4 µM to each entry below.
Numbers only, in %.

Answered examples (3):
OC(Cn1cncn1)(Cn1cncn1)c1ccc(F)cc1F    3.68
CC[C@@H]([C@H](C)O)n1ncn(-c2ccc(N3CCN(c4ccc(OC[C@@H]5CO[C@@](Cn6cncn6)(c6ccc(F)cc6F)C5)cc4)CC3)cc2)c1=O    6.66
CCC(C)n1ncn(-c2ccc(N3CCN(c4ccc(OCC5COC(Cn6cncn6)(c6ccc(Cl)cc6Cl)O5)cc4)CC3)cc2)c1=O (stereo not shown)    3.21

[ask] Fill blank: measured remaining activity at 4 µM of the compound `C[C@@H](c1ncncc1F)[C@](O)(Cn1cncn1)c1ccc(F)cc1F` is ____.
[reply] 0.79

----------
For each of the compounds below, state its remaining activity at 4 µM.
Target: CaCYP51 Y132F+F145L (Candida albicans, UniProt P10613, F145L/Y132F)
Construct: made in house; host or cells: E. coli DH5α (pCWori+)
Assay: CYP51 reconstitution assay
Assay type: biochemical
Details: 0.25 h, read-out: Residual CYP51 activity (%) ± SD
Protocol: Azole antifungal agents were added in 2.5 μl dimethyl sulfoxide, followed by 10 min of incubation at 37°C prior to assay initiation with 4 mM β-NADPH-Na4. The samples were then shaken for 15 min at 37°C. […]
Give bare numbers, in %.

Dear colleague, could you please provide remaining activity at 4 µM for the compounds listed below?
1. OC(Cn1cncn1)(Cn1cncn1)c1ccc(F)cc1F
2. CCC(C)n1ncn(-c2ccc(N3CCN(c4ccc(OCC5COC(Cn6cncn6)(c6ccc(Cl)cc6Cl)O5)cc4)CC3)cc2)c1=O (stereo not shown)
3. CC[C@@H]([C@H](C)O)n1ncn(-c2ccc(N3CCN(c4ccc(OC[C@@H]5CO[C@@](Cn6cncn6)(c6ccc(F)cc6F)C5)cc4)CC3)cc2)c1=O
4. C[C@@H](c1ncncc1F)[C@](O)(Cn1cncn1)c1ccc(F)cc1F

[reply]
[49.1, 0.91, 2.64, 13.6]
